Cited source: paper PMC9000588

Target: SARS-CoV-2 spike protein RBD (Severe acute respiratory syndrome coronavirus 2, UniProt P0DTC2)
Assay: biochemical
Assay type: binding
Conditions: read-out: Ka
Numbered stars: 1 amine (or outer) side, 2 acyl side, 3 side chain; on linkers, the order of the positions; unused ones are H or OH. Bridge positions count the residues as written; N and C are the ends. Peptide text beside a SMILES is read from it. Suc = O=C(CCC(=O)[*:2])[*:1]
metric_name: kon (M⁻¹ s⁻¹)
Please respond with the number in M⁻¹ s⁻¹ and leave the unit unwritten.

[Q] kon lookup needed for CC(C)C[C@H](NC(=O)CCC(=O)O)C(=O)N[C@@H](CC(C)C)C(=O)N[C@@H](CCC(=O)O)C(=O)N[C@@H](CCCCN)C(=O)N[C@@H](CC(C)C)C(=O)N[C@@H](CC(C)C)C(=O)N[C@@H](CCC(=O)O)C(=O)N[C@@H](Cc1c[nH]c2ccccc12)C(=O)N[C@@H](CC(C)C)C(=O)N[C@@H](CCC(=O)O)C(N)=O [Peptide 9] (Suc-LLEKLLEWLE-NH2) , thanks.
[A] 5.83

[Q] Quick check: kon of CSCC[C@@H]1NC(=O)[C@H](CC(C)C)NC(=O)[C@H](CCCCN)NC(=O)[C@H](CCC(=O)O)NC(=O)[C@H](Cc2ccccc2)NC(=O)[C@H](CC(C)C)NC(=O)[C@H](CC(=O)O)NC(=O)[C@H](CCC(=O)O)NC(=O)[C@H](C)NC(=O)[C@H](CCC(=O)O)NC(=O)[C@H](Cc2c[nH]cn2)NC(=O)[C@H](CC(N)=O)NC(=O)[C@H](Cc2ccccc2)NC(=O)[C@H](CCCCN)NC(=O)[C@@H](N)CSSC[C@@H](C(N)=O)NC1=O [Peptide 6] (H-CKFNHEAEDLFEKLMC-NH2; disulfide 1-16) ?
[A] 6.84

[Q] Would you kindly share the measured kon for CSCC[C@H](NC(=O)[C@H](CC(C)C)NC(=O)[C@H](CCCCN)NC(=O)[C@H](CCC(=O)O)NC(=O)[C@H](Cc1ccccc1)NC(=O)[C@H](CC(C)C)NC(=O)[C@H](CC(=O)O)NC(=O)[C@H](CCC(=O)O)NC(=O)[C@H](C)NC(=O)[C@H](CCC(=O)O)NC(=O)[C@H](Cc1c[nH]cn1)NC(=O)[C@H](CC(N)=O)NC(=O)[C@H](Cc1ccccc1)NC(=O)[C@H](CCCCN)NC(=O)CCC(=O)O)C(N)=O [Peptide 4] (Suc-KFNHEAEDLFEKLM-NH2) ?
[A] 13.9

Further cases:
[Q] What kon value was documented for this compound, CSCC[C@@H]1NC(=O)[C@H](CC(C)C)NC(=O)[C@H](CCCCN)NC(=O)[C@H](CCC(=O)O)NC(=O)[C@H](Cc2ccccc2)NC(=O)[C@H](CC(C)C)NC(=O)[C@H](CC(=O)O)NC(=O)[C@H](CCC(=O)O)NC(=O)[C@H](C)NC(=O)[C@H](CCC(=O)O)NC(=O)[C@H](Cc2c[nH]cn2)NC(=O)[C@H](CC(N)=O)NC(=O)[C@H](Cc2ccccc2)NC(=O)[C@H](CCCCN)NC1=O [Peptide 3] (cyclo(AEDLFEKLMKFNHE)) ?
[A] 15.1

* * *

Target: SARS-CoV-2 spike protein RBD (Severe acute respiratory syndrome coronavirus 2, UniProt P0DTC2)
Assay: biochemical
Assay type: binding
Details: read-out: Ka
Ends that are not written are not given here.
In plain terms, low kon, meaning strictly below 1 M⁻¹ s⁻¹, gives MET, and everything else gives NOT MET.

[Q] State whether 1 M⁻¹ s⁻¹ exceeds kon recorded for KFNDEAEDLFKLFEELFEDM-NH2 [Peptide 10] .
[A] NOT MET

[Q] Is it true that kon reported for KFNHEAEDLFEKLM-NH2 [Peptide 2] is less than 1 M⁻¹ s⁻¹?
[A] NOT MET

[Q] Does the reported kon of the following substance sit strictly below 1 M⁻¹ s⁻¹? KFNHEAEDLFEKLM [Peptide 1]
[A] NOT MET

[Q] Field: below-cutoff. Rule: recorded kon strictly less than 1 M⁻¹ s⁻¹. Subject: Ac-KFNHEAEDLFEKLM [Peptide 5]
[A] MET

Further cases:
[Q] Is kon strictly under 1 M⁻¹ s⁻¹ for the entry GLFKEALEELWEA-NH2 [Peptide 8] ?
[A] NOT MET
